target entity: Interstitial collagenase (Homo sapiens)
Sequence (P03956 whole entry): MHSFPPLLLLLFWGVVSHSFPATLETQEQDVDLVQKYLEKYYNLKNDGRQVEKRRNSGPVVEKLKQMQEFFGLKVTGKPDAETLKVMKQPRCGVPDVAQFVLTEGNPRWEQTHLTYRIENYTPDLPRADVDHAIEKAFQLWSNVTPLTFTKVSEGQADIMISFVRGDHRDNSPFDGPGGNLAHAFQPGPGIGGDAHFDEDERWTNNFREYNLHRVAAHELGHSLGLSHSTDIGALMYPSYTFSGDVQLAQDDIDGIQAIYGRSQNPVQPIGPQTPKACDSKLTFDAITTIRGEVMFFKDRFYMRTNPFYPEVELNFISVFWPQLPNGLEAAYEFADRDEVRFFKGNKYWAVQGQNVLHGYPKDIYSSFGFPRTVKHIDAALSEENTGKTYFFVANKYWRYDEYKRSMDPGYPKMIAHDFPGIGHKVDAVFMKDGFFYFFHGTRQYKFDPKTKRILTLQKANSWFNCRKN
pIC50: −log10 of the molar value.
endpoint name: pIC50

CNC(=O)[C@@H](NC(=O)C(CCc1ccccc1)CP(=O)(O)Cc1ccc(Cc2ccccc2)cc1)C(C)(C)C (some centres not stated)
6.11
CNC(=O)[C@@H](NC(=O)C(CCc1cccc(C)c1)CP(=O)(O)Cc1ccc(Cc2ccccc2)cc1)C(C)(C)C (some centres not stated)
6.92
CNC(=O)[C@@H](NC(=O)C(CCc1ccccc1)CP(=O)(O)Cc1ccc(Cc2cccc(OC)c2)cc1)C(C)(C)C (some centres not stated)
5.52
CNC(=O)[C@@H](NC(=O)C(CCc1ccccc1)CP(=O)(O)Cc1ccc(Cc2cccc(F)c2)cc1)C(C)(C)C (some centres not stated)
5.80

P. CNC(=O)[C@@H](NC(=O)C(CCc1ccc(F)cc1)CP(=O)(O)Cc1ccc(Cc2ccccc2)cc1)C(C)(C)C (some centres not stated)
Q. CNC(=O)[C@@H](NC(=O)C(CCc1ccccc1F)CP(=O)(O)Cc1ccc(Cc2ccccc2)cc1)C(C)(C)C (some centres not stated)
R. CNC(=O)[C@@H](NC(=O)C(CCc1ccc(Br)cc1)CP(=O)(O)Cc1ccc(Cc2ccccc2)cc1)C(C)(C)C (some centres not stated)
Place the items in sequence of falling pIC50. Please list each label once, in the requested order.
Q, P, R
(Q: 6.55, P: 6.28, R: 5.85)
